Would you mind telling me the reported cleaved RNA product abundance of each entry?
Tested on: Bacillus subtilis
Assay: cleaved RNA product abundance (RNA/gDNA barcode ratio) relative to median wild-type variant (ratio to wild type); higher = more accumulation of the downstream cleavage product
Settings: experiment (reporter, strain, medium): exp 4a: truncated aprE reporter, strain BJT201 with 2% xylose (RNase J1 expressed); cleavage site: cggR-gapA (positions -7 to +36 mutated)

Tested system Bacillus subtilis; cleaved RNA product abundance recorded for "ACAGACGAAGGAGCCGCAAACAAGTTATTAAGGGATGTATAATCCCTCAATATAAATATCTCTCACTTATTTAAA" was 0.478

Observed cleaved RNA product abundance, Bacillus subtilis, "ACAGACGAAGGAGCCGCAAATAAGTTATTAACGGATGAATAATCCCTCAATATAAATATCTCTCACTTATTTAAA" : 0.157

Field cleaved RNA product abundance (system: Bacillus subtilis) for entry "ACAGACGAAGGAGCCGCAAAGAAGTTAATAAGGGATGAATAATCCCTAAATATAAATATCTCTCACTTATTTAAA" = 0.306

Entry "ACAGACGAAGGAGCCGCAAAGAAGTTATTAAGGGATGAATAATCCCACTATATAAATATCTCTCACTTATTTAAA" , Bacillus subtilis data, cleaved RNA product abundance value: 0.282

###

System: Bacillus subtilis
Test: cleaved RNA product abundance (RNA/gDNA barcode ratio) relative to median wild-type variant (ratio to wild type); higher = more accumulation of the downstream cleavage product
Details: experiment (reporter, strain, medium): exp 4a: truncated aprE reporter, strain BJT201 with 2% xylose (RNase J1 expressed); cleavage site: cggR-gapA (positions -7 to +36 mutated)
Where cleaved RNA product abundance equals or exceeds 0.5, the correct label is Condition met; where it does not, the label is Condition not met.

**Query** Please indicate if the recorded cleaved RNA product abundance for "ACAGACGAAGGAGCCGCAAAGAAGTTATTAAGGGATGAAGAAGCCCTCAATATAAATATCTCTCACTTATTTAAA" meets or exceeds 0.5.
**Result** Condition met

**Query** Please check the record "ACAGACGAAGGAGCCGCAAAGAAGTTATTAAGGGATGAATAATCCCTCAGAATAAATATCTCTCACTTATTTAAA" and state if its cleaved RNA product abundance is at or above 0.5.
**Result** Condition not met

**Query** Does "ACAGACGAAGGAGCCGCAAAGAAGTTATTAAGGGATGAATAATCCCTCACTATATATATCTCTCACTTATTTAAA" have a reported cleaved RNA product abundance of at least 0.5?
**Result** Condition not met

**Query** Please check the record "ACAGACGAAGGAGCCGCAAAGAAGTTATTAAGGGATGAATAATCCCTCAATAGAAATACCTCTCACTTATTTAAA" and state if its cleaved RNA product abundance is at or above 0.5.
**Result** Condition not met

**Query** Could you tell me if the measured cleaved RNA product abundance of "ACAGACGAAGGAGCCGCAAAGAAGTTATTTAGGGAAGAATAATCCCTCAATATAAATATCTCTCACTTATTTAAA" reaches 0.5 or more?
**Result** Condition met

**Query** Does the sequence "ACAGACGAAGGAGCCGCAAAGAAGTTATTAAGGGATGAATAATCCCCTAATATAAATATCTCTCACTTATTTAAA" have recorded cleaved RNA product abundance that is 0.5 or more?
**Result** Condition met

**Query** Determine whether this sequence has cleaved RNA product abundance no lower than 0.5: "ACAGACGAAGGAGCCGCAAAGAAGTGATTAAGGGATGAATAATCCCACAATATAAATATCTCTCACTTATTTAAA"
**Result** Condition not met
